# credit: paper PMC10545747

TESTED_ON: recombinant human cGAS enzyme (hcGAS-ΔN, residues 147–522) (Homo sapiens, UniProt Q8N884)
Construct: N-terminally truncated human cGAS (hcGAS-ΔN, residues 147–522); 6xHis-SUMO (N, cleaved yes); made in house; host or cells: Escherichia coli BL21 (DE3)
Sequence (Q8N884 147-522, stated change not applied): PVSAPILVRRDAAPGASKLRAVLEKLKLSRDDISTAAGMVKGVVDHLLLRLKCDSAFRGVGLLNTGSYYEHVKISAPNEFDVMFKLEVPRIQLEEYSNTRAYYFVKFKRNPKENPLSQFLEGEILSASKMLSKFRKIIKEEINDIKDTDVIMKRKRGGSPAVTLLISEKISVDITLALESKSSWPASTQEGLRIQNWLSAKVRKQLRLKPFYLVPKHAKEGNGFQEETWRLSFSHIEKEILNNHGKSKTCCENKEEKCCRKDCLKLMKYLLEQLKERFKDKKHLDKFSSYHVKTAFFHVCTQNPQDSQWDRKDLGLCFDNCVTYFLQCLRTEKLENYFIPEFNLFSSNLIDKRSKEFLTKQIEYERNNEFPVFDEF
PROTOCOL_DETAILS: RNA-based fluorescent biosensor assay of cGAS activity (2',3'-cGAMP formation), in vitro screening
Type: biochemical
CONDITION_PARAMETERS: peptides screened at 20 μM; Supplementary Table 1 / Fig. S5b; read-out: Inhibition %
From the text: To screen direct cGAS inhibitors targeting protein-DNA interface from our developed focused library of macrocyclic peptides, we applied an RNA-based fluorescent biosensor for 2’,3’-cGAMP to detect cGAS activity in vitro (Supplementary Fig. 1a)[49]. […] To evaluate the inhibitory effect of the hits against cGAS in cells, we employed real-time quantitative PCR (qPCR) to examine mRNA levels of IFNΒ1 in THP1 cells. […]
Square brackets hold non-standard residues; d marks the D form. Peptide text beside a SMILES is read from it. Orn = NCCC[C@H](N)C(=O)O
Answer each item with its documented inhibition at 20 µM.
Give bare numbers, in %.

INSERT INTO measurements (compound, test_value) VALUES
  ('CC(C)C[C@@H]1NC(=O)[C@H](CCCNC(=N)N)NC(=O)[C@H](C(C)C)NC(=O)[C@@H]2CCCN2C(=O)[C@@H](C)NC(=O)[C@H](CC(C)C)NC(=O)[C@H](CCCNC(=N)N)NC(=O)[C@H](C(C)C)NC(=O)[C@@H]2CCCN2C(=O)[C@@H](C)NC1=O [XQ7, Cyclo (LaPVRLaPVR)] (cyclo(L[dA]PVRL[dA]PVR))', 0),
  ('CC(C)C[C@@H]1NC(=O)[C@H](CCCNC(=N)N)NC(=O)[C@H]([C@@H](C)O)NC(=O)[C@@H]2CCCN2C(=O)[C@@H](C)NC(=O)[C@H](CC(C)C)NC(=O)[C@H](CCCNC(=N)N)NC(=O)[C@H]([C@@H](C)O)NC(=O)[C@@H]2CCCN2C(=O)[C@@H](C)NC1=O [XQ40, Cyclo (LaPTRLaPTR)] (cyclo(L[dA]PTRL[dA]PTR))', 0),
  ('CC(C)C[C@H]1NC(=O)[C@H](Cc2ccccc2)NC(=O)[C@H]2CCCN2C(=O)[C@@H]([C@H](C)O)NC(=O)[C@@H](CCCNC(=N)N)NC(=O)[C@@H](CC(C)C)NC(=O)[C@H](Cc2ccccc2)NC(=O)[C@H]2CCCN2C(=O)[C@@H]([C@H](C)O)NC(=O)[C@@H](CCCNC(=N)N)NC1=O [XQ24, Cyclo (tpFlrtpFlr)] (cyclo(F[dL][dR][dT][dP]F[dL][dR][dT][dP]))', 5),
  ('CC(C)C[C@@H]1NC(=O)[C@H](CCCNC(=N)N)NC(=O)[C@H](C(C)C)NC(=O)[C@@H]2CCCN2C(=O)[C@@H](Cc2c[nH]c3ccccc23)NC(=O)[C@H](CC(C)C)NC(=O)[C@H](CCCNC(=N)N)NC(=O)[C@H](C(C)C)NC(=O)[C@@H]2CCCN2C(=O)[C@@H](Cc2c[nH]c3ccccc23)NC1=O [XQ11, Cyclo (LwPVRLwPVR)] (cyclo(L[dW]PVRL[dW]PVR))', 14),
  ('CC(C)C[C@@H]1NC(=O)[C@H](CCCNC(=N)N)NC(=O)[C@H](C(C)C)NC(=O)[C@@H]2CCCN2C(=O)[C@@H](Cc2ccccc2)NC(=O)[C@H](C)NC(=O)[C@H](CCCNC(=N)N)NC(=O)[C@H](C(C)C)NC(=O)[C@H](CC(C)C)NC(=O)[C@@H](Cc2ccccc2)NC1=O [XQ52, Cyclo (LfLVRAfPVR)] (cyclo(A[dF]PVRL[dF]LVR))', 0);

Now for another entry.
Ask: Look up inhibition at 20 µM: CC(C)C[C@@H]1NC(=O)[C@H](CCCN)NC(=O)[C@H](C(C)C)NC(=O)[C@@H]2CCCN2C(=O)[C@@H](Cc2ccccc2)NC(=O)[C@H](CC(C)C)NC(=O)[C@H](CCCN)NC(=O)[C@H](C(C)C)NC(=O)[C@@H]2CCCN2C(=O)[C@@H](Cc2ccccc2)NC1=O [XQ39, Cyclo (LfPV(Orn)LfPV(Orn))] (cyclo(V[Orn]L[dF]PV[Orn]L[dF]P))
Result: 3
